Experimental system: 4'-phosphopantetheinyl transferase Sfp (Bacillus subtilis (strain 168))
Experimental details: Gel-Based Assay for Inhibitos of Bacillus subtilis Sfp phosphopantetheinyl transferase (PPTase): Chemistry Optimization Followup
Condition context: purified Sfp PPTase, gel-based product detection; series mostly up to 250 µM
Protocol: The covalent attachment of a phosphopantetheinyl (4'-PP) arm to a variety of synthases and other proteins is a key posttranslational protein modification. The 4'-PP is installed on the proteins post-translationally from coenzyme A (CoA) on a conserved serine residue by action of phosphopantetheinyl transferase (PPTase) enzymes. […] In this assay, compounds were evaluated by monitoring of fluorescence transfer to whole carrier protein substrates via polyacrylamide gel electrophoresis. […]
This is one part of the list. Results filed as inconclusive are left out. Active and inactive are the calls of the source. Calls follow the shape of the dose curve; as a rule, active = well fitted inhibition curve with a large enough effect; inconclusive = small, poorly fitted or top-dose-only effect; inactive = no such curve, though single readings can be large or run the other way.
Select the matching outcome among yes (1) = active, no (0) = inactive

Request: What call does the record list for `COc1cccc(NC(=S)N2CCN(c3ccc(Cl)cc3Cl)CC2)n1` ?
Result: no (0)

Request: Which outcome was assigned to `COc1ccnc(NC(=S)N2CCN(c3ncc(C(F)(F)F)cc3Cl)CC2)c1` in this test?
Result: yes (1)

Request: Would you mind telling me which call this test gave `COc1cccc(NC(=S)N2CCN(c3ccccc3C(F)(F)F)CC2)n1` ?
Result: no (0)

Request: Which outcome was assigned to `FC(F)(F)c1cccc(N2CCN(C(=S)Nc3ccncc3)CC2)c1` in this test?
Result: no (0)

Request: What call does the record list for `Cc1cc(C)nc(NC(=S)N2CCN(c3ccc4nonc4c3)CC2)c1` ?
Result: yes (1)
